# Tested on: Paracentrotus lividus
# testMethodNotes: Induction of microtubule destabilization in sea urchin embryo assessed as cleavage alteration exposed 8 to 20 mins after fertilization and 45 to 55 mins before first mitotic cycle completion measured 2.5 to 5.5 hrs after fertilization
Reported EC by item:
Supply the numeric figure in µM, leaving out any unit text.

Consider the reported EC for these compounds:
smilesInput	quantityUnit	EC
N#Cc1cc2c(N)c(C(=O)c3ccc(F)cc3)sc2nc1N	µM	4
COc1ccc(C(=O)c2sc3nc(N)c(C#N)cc3c2N)cc1OC	µM	4
CN1CCc2nc3sc(C(=O)c4ccccc4)c(N)c3cc2C1	µM	4
Nc1c(C(=O)c2ccccc2)sc2nc3c(cc12)CCCC3	µM	0.02

[Q] Find EC (Paracentrotus lividus) for the entry Cc1ccc(C(=O)c2sc3nc4c(cc3c2N)CCC4)cc1
[A] 0.2

[Q] Find EC (Paracentrotus lividus) for the entry Cc1ccc(C(=O)c2sc3nc(C)ccc3c2N)cc1
[A] 1

[Q] Find EC (Paracentrotus lividus) for the entry Cc1ccc(C(=O)c2sc3nc4c(cc3c2N)CCCC4)c(C)c1
[A] 0.05

[Q] Find EC (Paracentrotus lividus) for the entry Cc1cccc(NC(=O)c2sc3nc4c(cc3c2N)CCCC4)c1C
[A] 0.01

[Q] Find EC (Paracentrotus lividus) for the entry Cc1ccc2c(N)c(C(=O)c3ccc(Cl)cc3)sc2n1
[A] 0.5

[Q] Find EC (Paracentrotus lividus) for the entry COc1ccc(C(=O)c2sc3nc4c(cc3c2N)CCCC4)cc1OC
[A] 0.5

[Q] Find EC (Paracentrotus lividus) for the entry COc1ccc(C(=O)c2cc(OC)c(OC)c(OC)c2)cc1O
[A] 0.01

[Q] Find EC (Paracentrotus lividus) for the entry COC(=O)Nc1nc2cc(C(=O)c3cccs3)ccc2[nH]1
[A] 0.005

[Q] Find EC (Paracentrotus lividus) for the entry Nc1c(C(=O)c2ccc3c(c2)OCO3)sc2nc3c(cc12)CCCC3
[A] 0.025

[Q] Find EC (Paracentrotus lividus) for the entry Nc1c(C(=O)Nc2ccccc2)sc2nc3c(cc12)CCCC3
[A] 0.01

[Q] Find EC (Paracentrotus lividus) for the entry Nc1c(C(=O)c2ccc(Br)cc2)sc2ncccc12
[A] 1

[Q] Find EC (Paracentrotus lividus) for the entry Nc1c(C(=O)c2ccc(F)cc2)sc2nc3c(cc12)CCCC3
[A] 0.2
